B1: ZNF207 (parent)
chain: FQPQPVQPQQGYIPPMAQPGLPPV

Variants of: B1
Assay: protein stability index of a GFP-peptide fusion (GPS, HEK-293T) (PSI 1-6); higher = more stable;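 also: lentivirally expressed fusions sorted by FACS into six bins by GFP to DsRed ratio, PSI derived from sequencing read proportions per bin multiplied by bin number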
Details: c terminus: a fixed tail appended
Property measured: protein stability index
Answer using only a numeral; do not append any unit.

Incoming: Requested read-out: protein stability index. Entry: "P8Q"
Outgoing: 2.95

Incoming: Requested read-out: protein stability index. Entry: "P22T"
Outgoing: 2.7

Incoming: Requested read-out: protein stability index. Entry: "P15N"
Outgoing: 3.45

Incoming: Requested read-out: protein stability index. Entry: "P8E"
Outgoing: 3.22

Incoming: Requested read-out: protein stability index. Entry: "A17Q"
Outgoing: 3.39

Incoming: Requested read-out: protein stability index. Entry: "V24G"
Outgoing: 3.1

Incoming: Requested read-out: protein stability index. Entry: "P22V"
Outgoing: 2.72

Incoming: Requested read-out: protein stability index. Entry: "P23Y"
Outgoing: 2.42

Incoming: Requested read-out: protein stability index. Entry: "P5D"
Outgoing: 3.18

Incoming: Requested read-out: protein stability index. Entry: "P8W"
Outgoing: 2.31

Incoming: Requested read-out: protein stability index. Entry: "P14Y"
Outgoing: 2.65

Incoming: Requested read-out: protein stability index. Entry: "Y12M"
Outgoing: 3.72

Incoming: Requested read-out: protein stability index. Entry: "M16N"
Outgoing: 3.48

Incoming: Requested read-out: protein stability index. Entry: "P8L"
Outgoing: 3.19

Incoming: Requested read-out: protein stability index. Entry: "P23H"
Outgoing: 2.77

Incoming: Requested read-out: protein stability index. Entry: "Q18M"
Outgoing: 2.7

Incoming: Requested read-out: protein stability index. Entry: "P3C"
Outgoing: 3.47

Incoming: Requested read-out: protein stability index. Entry: "Q9R"
Outgoing: 3.26

Incoming: Requested read-out: protein stability index. Entry: "Q9M"
Outgoing: 2.88

Incoming: Requested read-out: protein stability index. Entry: "P22F"
Outgoing: 2.54

Incoming: Requested read-out: protein stability index. Entry: "P23A"
Outgoing: 3.4

Incoming: Requested read-out: protein stability index. Entry: "G11T"
Outgoing: 2.6
